Listed here are molecules together with their documented D5 (% inh).
biological target: dopamine D5 (Homo sapiens, UniProt P21918); test: Primary radioligand binding assay (NIMH PDSP); settings: primary radiobinding assay, [3H]SCH233930
Sequence (P21918 whole entry): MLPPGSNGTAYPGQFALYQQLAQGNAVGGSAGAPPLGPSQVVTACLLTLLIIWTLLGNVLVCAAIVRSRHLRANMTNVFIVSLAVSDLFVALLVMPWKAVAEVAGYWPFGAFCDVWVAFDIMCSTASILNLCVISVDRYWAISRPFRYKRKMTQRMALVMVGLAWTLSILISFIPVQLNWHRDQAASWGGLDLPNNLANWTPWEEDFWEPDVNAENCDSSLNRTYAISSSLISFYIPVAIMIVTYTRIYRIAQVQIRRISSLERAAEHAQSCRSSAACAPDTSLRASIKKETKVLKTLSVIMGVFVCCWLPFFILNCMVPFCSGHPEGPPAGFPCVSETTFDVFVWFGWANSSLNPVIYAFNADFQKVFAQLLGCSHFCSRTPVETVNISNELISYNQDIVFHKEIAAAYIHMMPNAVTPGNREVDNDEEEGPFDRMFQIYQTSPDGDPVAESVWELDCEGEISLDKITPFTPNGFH
Where a name gives a salt, the structure may show the parent alone.
Use % inh as the unit, but write only the number.

molecule	D5 (% inh)
COc1ccc2c(c1)C(=O)N(CCN1CCN(c3ccccc3OC)CC1)C2 [GFR-VII-280-HCl]	6
CC1Cc2ccccc2N1C(=O)CN1CCN(c2ccccc2)CC1 (stereo not shown)	18
COc1ccc2c(c1)C(=O)N(CCCN1CCN(c3ccccc3OC)CC1)C2	31.8
COc1cc2c(cc1OC)C(=O)N(CCCCN1CCN(c3ccccc3OC)CC1)C2	75.1
CC1Cc2ccccc2N1C(=O)CN1CCN(Cc2ccccc2)CC1 (stereo not shown)	9.7
COc1ccc2c(c1)CN(CCCN1CCN(c3ccccc3OC)CC1)C2=O	32.5

Q. Item: COc1ccc2c(c1)C(=O)N(CCN1CCN(c3ccccc3OC)CC1)C2 [GFR-VII-280] Test system: dopamine D5 (Homo sapiens, UniProt P21918) Read-out: D5 (% inh) Value: ?
A. 21.8

----------
biological target: dopamine D3 (Homo sapiens); assay: Secondary radioligand binding assay (Ki); settings: read-out: Experimental Receptor Binding Data-Ki D3; Table 25, GPCR panel
Sequence (P35462 whole entry): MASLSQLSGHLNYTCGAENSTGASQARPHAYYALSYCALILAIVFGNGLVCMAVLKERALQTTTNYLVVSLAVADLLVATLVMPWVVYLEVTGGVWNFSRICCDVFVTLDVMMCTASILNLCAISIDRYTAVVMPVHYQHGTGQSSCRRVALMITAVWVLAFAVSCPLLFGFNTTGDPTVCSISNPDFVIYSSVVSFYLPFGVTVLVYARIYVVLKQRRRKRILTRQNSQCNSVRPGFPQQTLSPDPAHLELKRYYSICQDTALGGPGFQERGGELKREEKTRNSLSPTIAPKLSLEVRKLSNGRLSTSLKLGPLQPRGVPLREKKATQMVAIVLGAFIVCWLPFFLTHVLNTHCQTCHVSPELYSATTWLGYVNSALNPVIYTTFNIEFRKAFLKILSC
pKi for assorted compounds
Scale: negative log10 of molar concentration, which is what pKi denotes.

The examples below pair each entry with its known result.
COc1ccc2c(c1)C(=O)N(CCN1CCN(c3ccccc3OC)CC1)C2 6.68
COc1ccc2c(c1)CN(CCCN1CCN(c3ccccc3OC)CC1)C2=O 6.82

Next compound, please.
Q. Would you kindly share the measured pKi for COc1cc2c(cc1OC)C(=O)N(CCCCN1CCN(c3ccccc3OC)CC1)C2 ?
A. 7.96

----------
biological target: dopamine D2 (Homo sapiens, UniProt P14416); assay: Secondary radioligand binding assay (Ki); conditions: Table 22: Selectivity of Dopamine D2 over average of α1 Receptors
Sequence (P14416 whole entry, species assumed): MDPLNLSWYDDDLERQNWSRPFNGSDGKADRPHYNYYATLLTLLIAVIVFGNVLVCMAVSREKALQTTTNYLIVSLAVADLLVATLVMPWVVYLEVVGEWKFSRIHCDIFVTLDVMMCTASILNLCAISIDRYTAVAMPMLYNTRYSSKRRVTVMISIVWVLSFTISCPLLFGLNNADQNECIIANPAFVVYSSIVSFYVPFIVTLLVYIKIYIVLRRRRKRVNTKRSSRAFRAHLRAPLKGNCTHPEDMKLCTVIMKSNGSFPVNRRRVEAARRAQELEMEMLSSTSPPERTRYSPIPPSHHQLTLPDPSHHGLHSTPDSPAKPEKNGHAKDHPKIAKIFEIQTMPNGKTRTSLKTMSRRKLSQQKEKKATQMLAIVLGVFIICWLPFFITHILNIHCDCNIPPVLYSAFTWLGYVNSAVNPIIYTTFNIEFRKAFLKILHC
Structures can show the parent of a compound that is named as a salt.
α1/D2 reference

Known results for compounds:
compound	α1/D2
COc1cc2c(cc1OC)C(=O)N(CCCCN1CCN(c3ccccc3OC)CC1)C2	0.053
COc1ccc2c(c1)C(=O)N(CCN1CCN(c3ccccc3OC)CC1)C2 [GFR-VII-280-HCl]	0.008
COc1ccc2c(c1)C(=O)N(CCCN1CCN(c3ccccc3OC)CC1)C2	0.12
COc1ccc2c(c1)C(=O)N(CCN1CCN(c3ccccc3OC)CC1)C2 [GFR-VII-280]	0.014

Q. // returns reported α1/D2 for input COc1ccc2c(c1)CN(CCCN1CCN(c3ccccc3OC)CC1)C2=O
A. 0.177

----------
target: dopamine D3 (Homo sapiens); assay: Secondary radioligand binding assay (Ki); conditions: Table 23: Selectivity of Dopamine D3 over α1 Receptors; ratio of Ki
Counter-ions that a name gives are not always drawn.
So basically: α1B/D2 at 2 or higher? That is rule met. Lower than 2? That is rule not met.

Example entries begin here.
compound	assigned_class
COc1cc2c(cc1OC)C(=O)N(CCCCN1CCN(c3ccccc3OC)CC1)C2	rule not met
COc1ccc2c(c1)C(=O)N(CCN1CCN(c3ccccc3OC)CC1)C2 [GFR-VII-280]	rule not met
COc1ccc2c(c1)C(=O)N(CCN1CCN(c3ccccc3OC)CC1)C2 [GFR-VII-280-HCl]	rule not met

Q. Check the entry COc1ccc2c(c1)CN(CCCN1CCN(c3ccccc3OC)CC1)C2=O : does α1B/D2 equal or exceed 2?
A. rule met

Data provenance: patent US10381110B2
